Test system: Mus musculus
Assay: Anticonvulsant activity in ip dosed albino mouse assessed as absence of hind limb tonic extension after 0.5 hrs by MES test
Type: functional, Hindlimb
Settings: Mus musculus, albino, Hindlimb, ip, 0.5 h
// boundary case: ED50 equal to 300 µmol/kg maps to Criterion not met; strictly smaller maps to Criterion met

compound: Cc1ccc2nc(NC(=O)/C=C/c3ccco3)sc2c1
label: Criterion not met

compound: Cc1ccc2nc(NC(=O)/C=C/c3ccccc3)sc2c1
label: Criterion not met

compound: COc1ccc(C2CC(Nc3nc4ccc(C)cc4s3)=NN2C(C)=O)cc1 (stereo not drawn)
label: Criterion met

compound: Cc1ccc2nc(NC(=O)/C=C/c3ccc(O)cc3)sc2c1
label: Criterion met

compound: COc1ccc(/C=C/C(=O)Nc2nc3ccc(Cl)cc3s2)cc1O
label: Criterion not met

compound: CC(=O)N1N=C(Nc2nc3ccccc3s2)CC1c1ccccc1 (stereo not drawn)
label: Criterion not met

compound: O=C(/C=C/c1ccco1)Nc1nc2ccc([N+](=O)[O-])cc2s1
label: Criterion not met

compound: COc1ccc(/C=C/C(=O)Nc2nc3ccccc3s2)cc1O
label: Criterion not met

compound: O=C1NC(=O)C(c2ccccc2)(c2ccccc2)N1
label: Criterion met

compound: O=C(/C=C/c1ccccc1)Nc1nc2ccccc2s1
label: Criterion not met

compound: CC(=O)N1N=C(Nc2nc3ccc([N+](=O)[O-])cc3s2)CC1c1ccccc1 (stereo not drawn)
label: Criterion met

compound: COc1ccc(/C=C/C(=O)Nc2nc3ccc(C)cc3s2)cc1O
label: Criterion met

compound: O=C(/C=C/c1ccc(Cl)cc1)Nc1nc2ccc([N+](=O)[O-])cc2s1
label: Criterion met

compound: O=C(/C=C/c1ccc(O)cc1)Nc1nc2ccc([N+](=O)[O-])cc2s1
label: Criterion not met

compound: COc1ccc(C2CC(Nc3nc4ccc([N+](=O)[O-])cc4s3)=NN2C(C)=O)cc1 (stereo not drawn)
label: Criterion met

compound: O=C(/C=C/c1ccccc1)Nc1nc2ccc([N+](=O)[O-])cc2s1
label: Criterion not met

compound: O=C(/C=C/c1ccco1)Nc1nc2ccccc2s1
label: Criterion not met

compound: CC(=O)N1N=C(Nc2nc3ccc(C)cc3s2)CC1c1ccccc1 (stereo not drawn)
label: Criterion met

compound: O=C(/C=C/c1ccc(Cl)cc1)Nc1nc2ccc(Cl)cc2s1
label: Criterion met

compound: CC(=O)N1N=C(Nc2nc3ccc(Cl)cc3s2)CC1c1ccc(O)cc1 (stereo not drawn)
label: Criterion met

compound: CC(=O)N1N=C(Nc2nc3ccccc3s2)CC1c1ccco1 (stereo not drawn)
label: Criterion not met

compound: CC(=O)N1N=C(Nc2nc3ccc(C)cc3s2)CC1c1ccco1 (stereo not drawn)
label: Criterion met

compound: CC(=O)N1N=C(Nc2nc3ccccc3s2)CC1c1ccc(O)cc1 (stereo not drawn)
label: Criterion met

----------
Below, each entry is listed alongside its reported PI.
Organism: Mus musculus
Experiment: Protection index, ratio of TD50 to ED50 by MES test for albino mouse
Type: functional

compound: O=C(/C=C/c1ccc(O)cc1)Nc1nc2ccc([N+](=O)[O-])cc2s1
PI: 1.57
//
compound: O=C(/C=C/c1ccc(Cl)cc1)Nc1nc2ccc([N+](=O)[O-])cc2s1
PI: 3.03
//
compound: COc1ccc(C2CC(Nc3nc4ccc(Cl)cc4s3)=NN2C(C)=O)cc1 (centres undefined)
PI: 2.01
//
compound: O=C(/C=C/c1ccco1)Nc1nc2ccc([N+](=O)[O-])cc2s1
PI: 1.39
//
compound: CC(=O)N1N=C(Nc2nc3ccc([N+](=O)[O-])cc3s2)CC1c1ccc(O)cc1 (centres undefined)
PI: 1.29
//
compound: O=C(/C=C/c1ccc(Cl)cc1)Nc1nc2ccc(Cl)cc2s1
PI: 2.82
//
compound: COc1ccc(C2CC(Nc3nc4ccccc4s3)=NN2C(C)=O)cc1 (centres undefined)
PI: 1.63
//
compound: CC(=O)N1N=C(Nc2nc3ccc(Cl)cc3s2)CC1c1ccccc1 (centres undefined)
PI: 1.52
//
compound: Cc1ccc2nc(NC(=O)/C=C/c3ccc(Cl)cc3)sc2c1
PI: 2.67
//
compound: COc1ccc(/C=C/C(=O)Nc2nc3ccc(Cl)cc3s2)cc1O
PI: 1.46
//
compound: CC(=O)N1N=C(Nc2nc3ccc(Cl)cc3s2)CC1c1ccc(Cl)cc1 (centres undefined)
PI: 4.35
//
compound: O=C(/C=C/c1ccco1)Nc1nc2ccccc2s1
PI: 1.15
//
compound: COc1ccc(C2CC(Nc3nc4ccccc4s3)=NN2C(C)=O)cc1O (centres undefined)
PI: 1.47
//
compound: O=C(/C=C/c1ccccc1)Nc1nc2ccccc2s1
PI: 1.28
